- test_target: T1, Human CD3εδ Fc heterodimer (Hu CD3ε Fc + CD3δ Fc-HIS) (human, UniProt P07766 22-126; P04234 22-100)
- T1 construct: range 22-126;range 22-100; Made in HEK 293 cells with a heterologous signal peptide; also called Hu CD3εδ-Fc; CD3εδ Fc-HIS heterodimer; not shown: Fc; Fc followed by HIS tag
- T1 sequence (P07766 22-126, stated change not applied, form in doubt, chain 1 of 2): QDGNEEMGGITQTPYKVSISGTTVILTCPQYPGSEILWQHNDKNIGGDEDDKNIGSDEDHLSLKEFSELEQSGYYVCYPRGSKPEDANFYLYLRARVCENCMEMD
- T1 sequence (P04234 22-100, stated change not applied, form in doubt, chain 2 of 2): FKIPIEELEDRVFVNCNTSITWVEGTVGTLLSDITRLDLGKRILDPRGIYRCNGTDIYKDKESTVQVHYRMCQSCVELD
- measurement_description: SPR (Biacore), Fab over immobilized CD3εδ Fc, pH 6.0
Rule: Kd below 20 nM gives satisfied. Equal to or above 20 nM gives not satisfied.

binder: Antibody No. V009 (ADI-70326) Fab (Fab, V domains shown, Fab by papain digestion of the IgG1) VH: QVQLVQSGAEVKKPGASVKVSCKASGFDIKDYYMHWVRQAPGQRLEWIGWIELENADTVYDAKFQGRVTITRDTSASTAYMELSSLRSEDTAVYYCARDAYGRYFYDVWGQGTLVTVSS VL: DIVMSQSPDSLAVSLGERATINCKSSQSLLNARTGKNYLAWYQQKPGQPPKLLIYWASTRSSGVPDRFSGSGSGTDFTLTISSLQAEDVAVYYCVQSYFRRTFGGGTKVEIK
class: satisfied
//
binder: Antibody No. V019 (ADI-76362) Fab (Fab, V domains shown, Fab by papain digestion of the IgG1) VH: QVQLVQSGAEVKKPGASVKVSCKASGFNIKDYYMHWVRQAPGQRLEWMGWIDLEEGDTIYDAKFQGRVTITRDTSASTAYMELSSLRSEDTAVYYCARDAYGRYFYDVWGQGTLVTVSS VL: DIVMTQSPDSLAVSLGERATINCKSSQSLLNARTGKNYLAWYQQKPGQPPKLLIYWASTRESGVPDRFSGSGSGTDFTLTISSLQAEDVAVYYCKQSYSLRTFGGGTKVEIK
class: not satisfied
//
binder: Antibody No. V018 (ADI-76361) Fab (Fab, V domains shown, Fab by papain digestion of the IgG1) VH: QVQLVQSGAEVKKPGASVKVSCKASGFDIKDYYMHWVRQAPGQRLEWMGWIDLEEGNTIYDAKFQGRVTITRDTSASTAYMELSSLRSEDTAVYYCARDAYGRYFYDVWGQGTLVTVSS VL: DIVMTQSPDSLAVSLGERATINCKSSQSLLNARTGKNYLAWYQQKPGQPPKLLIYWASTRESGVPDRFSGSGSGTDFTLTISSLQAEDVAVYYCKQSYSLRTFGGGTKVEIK
class: not satisfied
//
binder: Antibody No. V007 (ADI-67450) Fab (Fab, V domains shown, Fab by papain digestion of the IgG1) VH: QVQLVQSGAEVKKPGASVKVSCKASGFNIDDYYMHWVRQAPGQRLEWMGWIDLENANTIDDAKFQGRVTITRDTSASTAYMELSSLRSEDTAVYYCARDAYGRYFYDVWGQGTLVTVSS VL: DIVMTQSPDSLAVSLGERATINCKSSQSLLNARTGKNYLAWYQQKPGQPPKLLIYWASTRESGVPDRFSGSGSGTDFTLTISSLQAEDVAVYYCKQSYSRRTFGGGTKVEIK
class: satisfied

Hey, just so you know, these numbers are from patent US20240317858A1.
